glycan array binding signal (z-score) values, listed per item
- system-under-test: Gal(b1-3)Gal(b1-4)GlcNAc
- measurement-notes: glycan array binding signal (z-score within array); higher = stronger binding
- applied-conditions: glycan notation: IUPAC condensed, linker removed
Only a selection was taken, and the strongest signals are over-represented in it overall.
observation-type: glycan array binding signal (z-score)

• F17aG (Escherichia coli), Q99003 (protein) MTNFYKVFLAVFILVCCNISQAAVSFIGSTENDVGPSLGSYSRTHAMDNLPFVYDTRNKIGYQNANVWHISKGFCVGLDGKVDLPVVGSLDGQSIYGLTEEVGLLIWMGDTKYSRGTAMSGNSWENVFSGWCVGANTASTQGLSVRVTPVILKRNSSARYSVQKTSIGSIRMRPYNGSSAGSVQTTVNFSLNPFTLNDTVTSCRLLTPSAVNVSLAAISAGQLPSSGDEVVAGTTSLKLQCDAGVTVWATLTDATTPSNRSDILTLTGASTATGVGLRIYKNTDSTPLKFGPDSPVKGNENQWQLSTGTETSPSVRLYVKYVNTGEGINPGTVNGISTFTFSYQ = -0.151
• Epa1to9 (Candida glabrata) (protein) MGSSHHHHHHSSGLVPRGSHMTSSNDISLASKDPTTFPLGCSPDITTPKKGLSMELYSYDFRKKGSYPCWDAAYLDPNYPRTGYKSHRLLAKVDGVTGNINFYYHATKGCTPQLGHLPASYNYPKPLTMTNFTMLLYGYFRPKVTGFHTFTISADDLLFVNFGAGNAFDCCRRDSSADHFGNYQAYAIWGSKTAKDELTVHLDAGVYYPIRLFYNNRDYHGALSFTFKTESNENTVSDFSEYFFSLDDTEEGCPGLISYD = 4.22
